experiment: Solubility of paclitaxel; assay type: physicochemical; conditions: PBS with 0.1% Tween 80 (release medium), aqueous with cosolvent or surfactant or cyclodextrin, thermodynamic from solid; PBS with 0.1% Tween 80, room temperature, mean ± SD, n = 3
recorded-metric: solubility (µg/mL)
Field: numeric (µg/mL). Do not append units.

Need solubility of "CC(=O)O[C@H]1C(=O)[C@@]2(C)[C@H]([C@H](OC(=O)c3ccccc3)[C@]3(O)C[C@H](OC(=O)[C@H](O)[C@@H](NC(=O)c4ccccc4)c4ccccc4)C(C)=C1C3(C)C)[C@]1(OC(C)=O)CO[C@@H]1C[C@@H]2O" , thanks. 10.8

Cited source for all entries: patent US20110195030A1
